Ref: ChEMBL document CHEMBL4765228

- measurement_description: Aqueous solubility of the compound […] incubated for 60 min by RP-HPLC-DAD analysis
- Type: physicochemical
measured_attribute: solubility at 1 h (µM)
Lab book: enter the figure in µM, no units written.

Task item: Which solubility at 1 h value is on record for COc1ccc2c(c1)c(/C=C1\C(=O)Nc3ccc(S(=O)(=O)N(C)C)cc31)cn2C ?
Reply: 7.8

* * *

- study_system: Casein kinase II subunit alpha (Homo sapiens) (UniProt P68400)
- Sequence (P68400 whole entry, looked up): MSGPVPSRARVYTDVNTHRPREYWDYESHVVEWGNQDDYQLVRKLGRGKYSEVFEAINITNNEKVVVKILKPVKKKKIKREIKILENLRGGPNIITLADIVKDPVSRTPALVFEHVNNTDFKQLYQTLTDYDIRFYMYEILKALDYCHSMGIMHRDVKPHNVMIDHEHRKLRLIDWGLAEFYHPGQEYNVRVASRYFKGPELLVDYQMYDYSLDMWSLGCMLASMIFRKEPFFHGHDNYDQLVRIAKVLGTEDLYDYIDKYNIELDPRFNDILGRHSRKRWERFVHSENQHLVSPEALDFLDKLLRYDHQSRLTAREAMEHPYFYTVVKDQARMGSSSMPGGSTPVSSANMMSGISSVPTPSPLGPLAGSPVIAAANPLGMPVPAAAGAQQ
- measurement_description: Inhibition of human CK2alpha1 assessed as residual activity at 1 uM relative to control
Listed next: entries and their corresponding Activity.
Lab book: enter the figure in %, no units written.

| record_smiles | Activity (%) |
| --- | --- |
| COc1ccc2[nH]cc(/C=C3\C(=O)Nc4ccc(S(N)(=O)=O)cc43)c2c1 | 84 |
| CN(C)S(=O)(=O)c1ccc2c(c1)/C(=C/c1cn(C)c3ccc(O)cc13)C(=O)N2 | 89 |
| COc1ccc2c(c1)c(/C=C1\C(=O)Nc3ccc(S(=O)(=O)N(C)C)cc31)cn2C | 90 |
| Cn1cc(/C=C2\C(=O)Nc3ccc(S(N)(=O)=O)cc32)c2ccccc21 | 96 |
| COc1ccc2c(c1)c(/C=C1\C(=O)Nc3ccc(S(N)(=O)=O)cc31)cn2C | 94 |

# evaluate next
Task item: Which Activity value is on record for CNS(=O)(=O)c1ccc2c(c1)/C(=C/c1cn(C)c3ccc(OC)cc13)C(=O)N2 ?
Reply: 100
